The following molecules are listed with their measured selectivity ratio values.
test_summary: Selectivity index, ratio of IC50 for human MRC5 cells to IC50 for drug-sensitive trypomastigotes of Trypanosoma brucei
Format: toxicity, cell-based
settings: read-out: Ratio IC50

molecule: O=C(C1=NN(c2ccccc2)C2C3N(c4ccccc4)N=C(C(=O)c4ccccc4)N3c3ccccc3N12)c1ccccc1 (stereo not drawn)
selectivity ratio: 2
//
molecule: CCOC(=O)C1=NN(c2ccc(Cl)cc2)C2C3N(c4ccc(Cl)cc4)N=C(C(=O)OCC)N3c3ccccc3N12 (stereo in doubt; 4g)
selectivity ratio: 2
//
molecule: C[C@]12[C@@H]3N(c4ccccc4)N=C(C(=O)c4ccccc4)N3c3ccccc3N1C(C(=O)c1ccccc1)=NN2c1ccccc1 (racemic)
selectivity ratio: 2
